System under test: Human immunodeficiency virus type 1 integrase (Human immunodeficiency virus 1)
Sequence (Q7ZJM1 whole entry): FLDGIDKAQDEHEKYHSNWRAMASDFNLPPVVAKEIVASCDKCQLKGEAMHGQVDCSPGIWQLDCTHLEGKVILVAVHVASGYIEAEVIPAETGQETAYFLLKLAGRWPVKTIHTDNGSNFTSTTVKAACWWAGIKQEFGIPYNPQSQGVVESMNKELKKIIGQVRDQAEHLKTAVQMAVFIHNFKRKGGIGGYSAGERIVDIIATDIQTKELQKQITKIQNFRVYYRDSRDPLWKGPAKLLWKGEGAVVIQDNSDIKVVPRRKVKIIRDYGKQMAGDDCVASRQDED
Protocol notes: Inhibition of recombinant HIV1 integrase using unprocessed donor DNA by coupled assay
pIC50: −log10 of the molar value.
# key: entry, value: pIC50

Sample records with pIC50:
C=C(CC[C@@H](C)[C@H]1CC=C2C3=C([C@@H](O)[C@H](OC(C)=O)[C@@]21C)[C@@]1(C)C[C@H]2OC(C)(C)O[C@@H]2C(C)(C)[C@@H]1CC3)C(C)C < 4.30
C=C(CC[C@@H](C)[C@H]1CC=C2C3=C([C@@H](OC(C)=O)[C@H](OC(C)=O)[C@@]21C)[C@@]1(C)C[C@@H](OC(C)=O)[C@H](OC(C)=O)C(C)(C)[C@@H]1CC3)C(C)C < 4.30
C=C(CC[C@@H](C)[C@H]1CC=C2C3=C([C@@H](O)[C@H](OC(C)=O)[C@@]21C)[C@@]1(C)C[C@@H](OC(=O)c2ccccc2)[C@H](O)C(C)(C)[C@@H]1CC3)C(C)C < 4.10

Let's switch to this compound now.
Recorded result, C=C(CC[C@@H](C)[C@H]1CC=C2C3=C([C@@H](O)[C@H](OC(C)=O)[C@@]21C)[C@@]1(C)C[C@@H]2O[C@@H]2C(C)(C)[C@@H]1CC3)C(C)C , pIC50: < 4.30
